# assay-system: hMAO-B (Homo sapiens, UniProt P27338)
# Construct: purchased Sigma Aldrich; host or cells: BTI-TN-5B1-4 baculovirus-infected insect cells
# Sequence (P27338 1-520): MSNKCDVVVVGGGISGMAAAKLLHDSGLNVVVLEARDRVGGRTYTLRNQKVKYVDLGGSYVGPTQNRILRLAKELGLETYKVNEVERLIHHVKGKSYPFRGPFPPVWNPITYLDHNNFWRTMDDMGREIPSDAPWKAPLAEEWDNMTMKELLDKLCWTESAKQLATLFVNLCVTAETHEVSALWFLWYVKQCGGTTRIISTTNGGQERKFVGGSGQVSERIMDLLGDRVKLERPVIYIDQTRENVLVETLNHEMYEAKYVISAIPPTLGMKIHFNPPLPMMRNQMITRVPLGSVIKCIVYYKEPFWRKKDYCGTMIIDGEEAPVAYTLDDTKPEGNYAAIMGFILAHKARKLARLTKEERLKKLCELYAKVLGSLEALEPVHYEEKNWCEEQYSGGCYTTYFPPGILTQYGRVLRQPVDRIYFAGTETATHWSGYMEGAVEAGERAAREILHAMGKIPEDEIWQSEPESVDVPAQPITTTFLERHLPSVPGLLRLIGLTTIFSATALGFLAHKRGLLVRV
# test: biochemical
# experimental-parameters: residual activity at 10 µM; Table 3; read-out: hMAO-B RA (%)
Okay, here is how we bin by remaining activity at 10 µM: lower range = under 20%, middle range = from 20% up to 90%, upper range = 90% and over

compound-string	assigned-category
CN(C)CCOc1ccc(NC(=O)Nc2cc(C(F)(F)F)ccc2-n2cncn2)cc1	lower range
CNC(=O)c1cc(Oc2ccc(NC(=O)Nc3cc(C(F)(F)F)ccc3-n3cncn3)cc2)cc[n+]1[O-]	upper range
CNC(=O)c1cc(Oc2ccc(NC(=O)Nc3cc(C(F)(F)F)ccc3-n3cncn3)cc2)ccn1	upper range
CNC(=O)c1cc(Oc2ccc(NC(=O)Nc3cc(C(F)(F)F)ccc3F)cc2)ccn1	upper range
Nc1ncnc2c1ncn2-c1ccc(NC(=O)Nc2cc(C(F)(F)F)ccc2-n2cncn2)cc1	lower range
O=C(OC[C@H]1CCCN1c1ccnc2ncnn12)c1ccc(Oc2ccccc2)nc1	lower range
O=C(Nc1cc(C(F)(F)F)ccc1-n1cncn1)Nc1ccc(OCCN2CCOCC2)c2ccccc12	middle range
Nc1ccc(NC(=O)Nc2cc(C(F)(F)F)ccc2-n2cncn2)cc1	middle range
O=C(Nc1ccc(Oc2ccncc2)cc1)Nc1cc(C(F)(F)F)ccc1-n1cncn1	lower range
O=C(Nc1ccc(OCCN2CCCCC2)cc1)Nc1cc(C(F)(F)F)ccc1-n1cncn1	lower range

Values compiled from paper PMC9320114.
